experimentNotes: protein stability index of a GFP-peptide fusion (yeast GPS) (PSI 1-4); higher = more stable; sorted into four equal gates, so the index is relative within each strain
experimentalConditions: doa10∆
# label = Fulfilled if protein stability index >= 3 else Not fulfilled

seqText | assignedCategory
VREYEQPDANKKKRSRT [ISW2] | Fulfilled
NVETYEQILQWVTEVLG [BRR2] | Not fulfilled
QLAVRAPKGQNTLILRG [RPL18A] | Not fulfilled
LEGETDPLRIAMKELAE [RPO26] | Fulfilled
LSDNAKTLHSQMMSKGI [RPC34] | Fulfilled
LQRDLFIRLPHWPLNWY [RGR1] | Not fulfilled
CVEWRLPEIAKEIYTTL [YJR042W/NUP85] | Not fulfilled
IQKEEEPENNTVIEGVK [SWI3] | Fulfilled
EIVWTSSLIKAGLDKGI [RPO31] | Not fulfilled
HINKIPSNSTTTLHGPG [SRB8] | Not fulfilled
GGLKNGVLYQGNIQISE [DIS3] | Fulfilled
LGKVRFANYKLLLKKII [SRB4] | Not fulfilled
HLGCVPIGEAGDFGGWF [RIP1] | Not fulfilled
GTGKTMLVKAVANSTKA [RPT3] | Not fulfilled
VSVLLISKDCSAFACKT [BRR2] | Not fulfilled
TRYELYIKNILEAPVKS [YLR335W/NUP2] | Not fulfilled
IPVKLLNEAQGHIVSLE [SMD3] | Fulfilled
HIPRLIPKQLLDDEKIF [YJL039C/NUP192] | Not fulfilled
LDIKRVGSENVECTISI [SNF12] | Not fulfilled
SALIENNLFRIIAELSF [YJL039C/NUP192] | Not fulfilled
VRLQRQKKILSIRLKVP [RPL8B] | Not fulfilled
NARMPGMPNMPGMPNMP [SRP54] | Fulfilled
QFPEIAYPGKLICPQYG [CSL4] | Not fulfilled
YGILSIDDLIHEIITVG [RPL7A] | Not fulfilled
KTATVKINKKLNKAGKP [RPL38] | Not fulfilled
IFEISLQRKDYTSIVQC [YML103C/NUP188] | Not fulfilled
YTANTSAQSIASAKSVR [YAR002W/NUP60] | Not fulfilled
DPESRTQSYNNQNTLKE [POP1] | Not fulfilled
NALHTERLHELKKLQSD [SMC1] | Fulfilled
KTYALESINNVVDQLWS [RPN2] | Not fulfilled
ETTTEEDSENPSDWQRN [ITC1] | Fulfilled
AKQAKIRAGEFDVVLTT [SNF2] | Fulfilled
NNKNNSITTGNDNENIV [MED2] | Not fulfilled
LVFCKHITSVPISAVLR [GRR1] | Not fulfilled
HILAVKKMMNTLVHTRV [SSN2] | Not fulfilled
IRDNKLVSEKIINSTAL [RPC82] | Fulfilled
ETSGVTTALLKDEEIEK [MED8] | Fulfilled
NLDGTKAVKLRKSYKNQ [ROX3] | Fulfilled
LVSSGDRFIELISDQLL [YML103C/NUP188] | Not fulfilled
GLAPDARVLSNYLRQQC [PRE5] | Not fulfilled
VQGAAPWDTSLEVGRRF [MCD1] | Fulfilled
SKLKLKNLLRKNLSIDE [ECM29] | Not fulfilled
YYNPQAGTKITICIELK [RGR1] | Not fulfilled
PEKEASSATIVLCLTRS [YCG1] | Not fulfilled
DNSESHPFIPLLKEKPN [RRP6] | Not fulfilled
SLFSHRKHTRGDVSSGL [BRN1] | Fulfilled
KFPDMGSLWVEFCDEPS [RPB5] | Not fulfilled
KAIFQFVCRGMAATQTI [ECM29] | Not fulfilled
IIYHTTFSWLNAELLDY [YLR018C/POM34] | Not fulfilled
LTKYIRSKNLIFNGETL [GRR1] | Not fulfilled

* * *

experimentNotes: protein stability index of a GFP-peptide fusion (yeast GPS) (PSI 1-4); higher = more stable; sorted into four equal gates, so the index is relative within each strain
experimentalConditions: ubr1∆
So basically every entry gets a class from its protein stability index, ranges being 1 = under 2, 2 = from 2 up to 3, 3 = 3 and over

seqText | assignedCategory
TLHLVLRLRGGGKKRKK [RPS31] | 2
LKTFNGSLALLKLSMAD [POP4] | 2
TQQPGTNSHYNNTNTDN [SNF2] | 3
ISIYNMLPPKSVKFTHI [SSN2] | 2
EGWFYKRAASVARHIYM [RPS19A] | 2
QHGFEVQVGPMKVFVTK [RPB7] | 2
RIVGSELIQKYLGDGPR [RPT2] | 3
PAKSASARGSYLRVSFK [RPL17A] | 3
GAETDELSMIMEHFSQQ [RPS12] | 3
GLEVGPVVQVGIFIKIL [IRR1] | 2
HVTQEDFELAVGKVMNK [RPT6] | 2
TIRQIILPDSLNLDSLL [SMD1] | 2
PLNVLQDQYKEGIKVVD [SNF2] | 2
PDFEKLLPFVKGNVGFV [RPP0] | 1
LIAVYYSFGGLLMRLEG [RPB8] | 2
QNFAEFMTKLLEVANDL [IRR1] | 2
SYVNYRHMALLVDVMTT [RPO21] | 1
LLDVVKGTEASNDIIDK [YDL116W/NUP84] | 1
AQSSHIRAIRKVISEIL [RPS1A] | 1
KDLQENLLVLRGKNEII [RPO21] | 1
PTIRSNAVLGLGDMAVC [YCS4] | 1
GKQAIGAIAYNQFKRID [RET1] | 2
VHEWEVSKPSLLHETND [PRP8] | 3
RFEKAVKHVFGKTIVVK [SMC3] | 3
FKVQELLHSKPSLLLQK [NAS6] | 2
LAIDNMYILGMCVSKGN [YCG1] | 2
SRILYKAIRGMVSHKTA [RPL16B] | 1
TSTKPSFSFGAPESMKS [YOR098C/NUP1] | 3
WDLVDERTKQRTAKAYL [PRP8] | 3
GDDEATEIISTLSNGLI [BRR2] | 3
NQKTSAVAALTEVRAED [RPL8A] | 2
MDIAERIAVLHQKTKTL [YGL172W/NUP49] | 1
RIHAKNFEAALFAKSSS [GAL11] | 2
RLGSKKLVEIIWNDVVY [YJL039C/NUP192] | 3
KENKKRKNFKMGPLYQN [IRR1] | 2
FERFPSPSTSANVPSTA [RPN4] | 2
IKKKRKELFEKTFDYVS [SMC1] | 3
VPNYEVSEKAFLLTQSK [RPN7] | 2
PEFAGYSKAAEPHAVSL [ASC1] | 2
SILPTRDDLFVRNLQGI [NUT1] | 1
KIAERSLLLKNYLNDMH [SKP1] | 1
FDPFQAVSRSMTDIWNT [ECM29] | 2
ILTPESQLKKTKAQQKT [RPL7B] | 2
HLLSINYGEKEERKRWA [PCI8] | 3
RPDIVHTVFTSVNKNKR [RPL4A] | 1
WNLLRSLYIFFTTLLES [YML103C/NUP188] | 1
MTYKNKLTVCFDDILKV [MED2] | 2

* * *

// reported protein stability index per item
experimentNotes: protein stability index of a GFP-peptide fusion (yeast GPS) (PSI 1-4); higher = more stable; sorted into four equal gates, so the index is relative within each strain
experimentalConditions: ubr1∆
quantityMeasured: protein stability index

seqText | result
KWQTLIEANVTVKTSDD [RPS1A] | 1.67
FNSFRRFKSQFLYVLIP [QCR8] | 1.4
AQAQAQAQAQAHAQHQP [GAL11] | 3.03
SKNELKKAFTSYDRTLL [RPS16A] | 2.91
PLQVARCTKIIKGNGES [RPT1] | 2.01
DKFRKACSSSGRETILS [SIR3] | 2.64
GGLKNGVLYQGNIQISE [DIS3] | 3.17
QEGKISSVYRLKFAVQV [RPL26A] | 3.76
KEVASLPNKSTISKTVS [FAS2] | 3.21
RMERIKDHLLLEEEFVS [RPT2] | 2.23
AKQAKIRAGEFDVVLTT [SNF2] | 3.23
VDVLGTHSQTGTQQSNM [SIR4] | 3.2
PGPRLLYENIASSPIIL [RPN10] | 2.12
TGANFDDVERGVSRQIA [REC8] | 3.58
NKNQLLKRNRIRNARSI [POP1] | 3

* * *

// reported protein stability index per item
experimentNotes: protein stability index of a GFP-peptide fusion (yeast GPS) (PSI 1-4); higher = more stable; sorted into four equal gates, so the index is relative within each strain
experimentalConditions: ubr1∆
quantityMeasured: protein stability index

seqText | quantityMeasured | result
LEEKILAKKTHKQELQD [SMC4] | protein stability index | 2.85
LRYYKNIWLNNKIINWE [NUT1] | protein stability index | 3.39
DNSESHPFIPLLKEKPN [RRP6] | protein stability index | 1.99
NNDLESVSMLLQYYILE [RRI2] | protein stability index | 3.12
GSLTFLDNKGSGEDAEE [YIL149C/MLP2] | protein stability index | 3.46
NFGGGNNTTPSSTGNAN [YJL041W/NSP1] | protein stability index | 3.06
FSSNLSYANHLEESDVE [YOR098C/NUP1] | protein stability index | 1.89
